Target: Trx-6×His-BCL6 (human BCL6 BTB domain covering amino-acid sequence 5-129) (Homo sapiens (Human), UniProt P41182)
Assay: HTRF in vitro assay (BCL6 / BCOR-AF633 peptide)
Assay type: binding
Settings: initially generated data; 10 nM Trx-6×His-BCL6, 300 nM BCOR-AF633 peptide, 1 nM anti-6×His-Terbium cryptate
READOUT_NAME: HTRF pIC50

Look up HTRF pIC50 of COC(=O)C(C)CCn1c(=O)n(C)c2ccc(Nc3cc(C(=O)O)nc(Cl)c3C#N)cc21 (stereo not shown) and report it.
6.21

Look up HTRF pIC50 of Cn1c(=O)n(CC(O)Cn2cccn2)c2cc(Nc3ccnc(Cl)c3C#N)ccc21 (stereo not shown) [Example 10f] and report it.
5.49

Look up HTRF pIC50 of CCOC(=O)c1cc(Nc2ccc3c(c2)n(CC(O)CC)c(=O)n3C)n2ncc(F)c2n1 (stereo not shown) and report it.
5.39

Look up HTRF pIC50 of COC(=O)C(CCn1c(=O)n(C)c2ccc(Nc3ccnc(Cl)c3C#N)cc21)OCC1CC1 (stereo not shown) [Example 10e] and report it.
5.52

Where do the numbers come from? From patent US12110286B2.
